Where do the numbers come from? From the supplement of paper PMC11061612.

Overview of recorded Bliss excess for various compounds
System: NCI-H810 (Non-Small Cell Lung Carcinoma);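 further: after 72 h of two-drug dosing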
Assay: Bliss excess, mean over the matrix (fraction); higher = more synergy
experimental-endpoint: Bliss excess

compound="C=CCn1c(=O)c2cnc(Nc3ccc(N4CCN(C)CC4)cc3)nc2n1-c1cccc(C(C)(C)O)n1 [AZD1775] + C1CN(CCC1(C(=O)N[C@@H](CCO)C2=CC=C(C=C2)Cl)N)C3=NC=NC4=C3C=CN4 [Capivasertib] (first compound max 3 µM, partner max 3 µM)" test_value=-0.0404
compound="CS(=O)(=O)CCNCc1ccc(-c2ccc3ncnc(Nc4ccc(OCc5cccc(F)c5)c(Cl)c4)c3c2)o1 [Lapatinib] + NC1(c2ccc(-c3nc4ccn5c(=O)[nH]nc5c4cc3-c3ccccc3)cc2)CCC1 [MK-2206] (first compound max 10 µM, 7x7, partner max 10 µM)" test_value=-0.0152
compound="Cn1cnc2c(F)c(Nc3ccc(Br)cc3Cl)c(C(=O)NOCCO)cc21 [Selumetinib] + CCN(CCO)CCCOc1ccc2c(Nc3cc(CC(=O)Nc4cccc(F)c4)[nH]n3)ncnc2c1 [AZD2811] (first compound max 10 µM, 7x7, partner max 1 µM)" test_value=-0.037
compound="CS(=O)(=O)CCNCc1ccc(-c2ccc3ncnc(Nc4ccc(OCc5cccc(F)c5)c(Cl)c4)c3c2)o1 [Lapatinib] + C[C@@H](Oc1cc(-c2cnn(C3CCNCC3)c2)cnc1N)c1c(Cl)ccc(F)c1Cl [Crizotinib] (first compound max 10 µM, 7x7, partner max 10 µM)" test_value=-0.0386
